target: GSK3β kinase (Homo sapiens); assay: GSK3β kinase activity (Ser/Thr 09 peptide Z-lyte FRET assay); format: biochemical; conditions: recombinant kinase, 46 μM ATP, one hour at room temperature; read-out: EC50
Please provide measured EC50 for the entries that follow.
Give bare numbers, in nM.

For the compound "Cc1ncc(-c2ccc3cnc(NC(=O)C4CCN(C5COC5)CC4)cc3n2)s1" , what EC50 is on record?
127

For the compound "Cc1ncc(-c2ccc3cnc(NC(=O)C4CCN(C(=O)CN5CCCC5)CC4)cc3n2)s1" , what EC50 is on record?
182

For the compound "O=C(Nc1cc2cc(-c3cncc(N[C@H]4CCNC[C@@H]4F)n3)cnc2cn1)C1CC1" , what EC50 is on record?
780

For the compound "CN1CCCN(CC(=O)Nc2ncc3ccc(-c4cnn(C)c4)cc3n2)CC1" , what EC50 is on record?
532

For the compound "CC(C)Oc1ccc(C(=O)Nc2cc3cc(-c4cnc5n4CCNC5)ncc3cn2)cc1" , what EC50 is on record?
5140

Let's switch to this compound now.
For the compound "CN1CCCN(c2cc(C(=O)Nc3cc4cc(-c5cn(C)nn5)ncc4cn3)ccn2)CC1" , what EC50 is on record?
1470

* * *

test system: α-smooth muscle actin (aSMA) positive LL29 cells; test: Inhibition of the fibrotic process: αSMA staining in TGF-β1 treated LL29 fibroblasts from IPF patients; settings: Homo sapiens, Fibroblast, 96 h
reported-endpoint: EC50

Here are 2 compounds together with their reported answers.
For the compound "Cn1cc(-c2ccc3cnc(NC(=O)C(C)(C)F)nc3c2)nn1" , what EC50 is on record?
> 10 µM

For the compound "CC(F)(F)CN1CCC(C(=O)Nc2cc3cc(-c4cnco4)cnc3cn2)CC1" , what EC50 is on record?
> 10 µM

Let's switch to this compound now.
For the compound "CN1CCC(C(=O)Nc2cc3nc(-c4cnsc4)ccc3cn2)CC1" , what EC50 is on record?
> 10 µM

* * *

target: GSK3β kinase (Homo sapiens, UniProt P49841); test: GSK3β kinase activity (Ser/Thr 09 peptide Z-lyte FRET assay); type: biochemical; conditions: recombinant kinase, 46 μM ATP, one hour at room temperature; read-out: EC50
Sequence (P49841 whole entry): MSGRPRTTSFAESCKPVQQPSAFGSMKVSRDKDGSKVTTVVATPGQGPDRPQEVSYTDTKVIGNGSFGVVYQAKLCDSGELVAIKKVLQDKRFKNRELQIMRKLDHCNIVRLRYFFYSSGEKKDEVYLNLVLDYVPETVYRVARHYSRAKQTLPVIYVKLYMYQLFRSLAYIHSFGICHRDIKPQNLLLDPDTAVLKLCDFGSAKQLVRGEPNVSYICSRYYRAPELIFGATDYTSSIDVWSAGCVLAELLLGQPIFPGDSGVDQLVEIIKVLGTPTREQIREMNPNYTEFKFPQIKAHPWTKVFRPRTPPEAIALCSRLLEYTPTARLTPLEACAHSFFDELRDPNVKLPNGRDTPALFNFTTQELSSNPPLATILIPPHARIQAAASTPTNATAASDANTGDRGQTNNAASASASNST
Please provide measured EC50 for the entries that follow.

Please give EC50, item by item, for the list that follows.
1. CN1CCC(N(C)c2cc(C(=O)Nc3cc4cc(-c5cn(C)nn5)cnc4cn3)ccn2)CC1
2. Cn1cc(-c2cnc3cnc(NC(=O)c4ccc5nccnc5c4)cc3c2)cn1

1. > 10 µM
2. > 10 µM

For the molecule "Cn1cc(-c2ccc3nnc(NC(=O)C4CC4)cc3c2)cn1" , what EC50 is on record?
> 10 µM

* * *

system: α-smooth muscle actin (aSMA) positive LL29 cells; assay: Inhibition of the fibrotic process: αSMA staining in TGF-β1 treated LL29 fibroblasts from IPF patients; conditions: Homo sapiens, Fibroblast, 96 h
reported-endpoint: EC50

Here are 2 compounds together with their reported answers.
For the compound "Cn1cc(-c2ccc3cnc(NC(=O)c4ccc5nccnc5c4)nc3c2)cn1" , what EC50 is on record?
> 10 µM

For the compound "CC(F)(F)CN1CCC(C(=O)Nc2cc3cc(-c4cnco4)ncc3cn2)CC1" , what EC50 is on record?
> 10 µM

Let's switch to this compound now.
For the compound "CNC(=O)c1ccc(C(=O)Nc2cc3cc(-c4cn(C)nn4)ncc3cn2)cn1" , what EC50 is on record?
> 10 µM

* * *

test system: α-smooth muscle actin (aSMA) positive LL29 cells; test: Inhibition of the fibrotic process: αSMA staining in TGF-β1 treated LL29 fibroblasts from IPF patients; conditions: Homo sapiens, Fibroblast, 96 h
reported-endpoint: EC50

Please give EC50, item by item, for the list that follows.
1. CC(C)Oc1ccc(C(=O)Nc2ncc3ccc(-c4cnc5n4CCN(C)C5)cc3n2)cc1 [Compound 4577]
2. Cc1nnc(-c2cnc3cnc(NC(=O)c4ccnc(SC5CCN(C)CC5)c4)cc3c2)s1 [Compound 3474]
3. Cn1cc(-c2ccc3cnc(NC(=O)C4CCN(CC5(C(F)(F)F)CC5)CC4)cc3n2)nn1 [Compound 347]
4. Cc1nnc(-c2ccc3cnc(NC(=O)CN4C5CCC4CC5)nc3c2)s1 [Compound 1632]
5. Cn1cc(-c2ccc3cnc(NC(=O)C4CCN(Cc5ncccn5)CC4)nc3c2)cn1 [Compound 1007]
6. Cc1ncc(-c2cnc3cnc(NC(=O)c4ccnc(N5CCN(C)CC5)c4)cc3c2)s1 [Compound 3363]

1. > 10 µM
2. > 10 µM
3. > 10 µM
4. > 10 µM
5. > 10 µM
6. > 10 µM

* * *

biological target: GSK3β kinase (Homo sapiens, UniProt P49841); test: GSK3β kinase activity (Ser/Thr 09 peptide Z-lyte FRET assay); type: biochemical; settings: recombinant kinase, 46 μM ATP, one hour at room temperature; read-out: EC50
pEC50: −log10 of the molar value.
Please provide measured pEC50 for the entries that follow.

Here are 2 compounds together with their reported answers.
For the compound "Cn1ncc(-c2cnc3cnc(NC(=O)c4ccnc(N5CCOCC5)c4)cc3c2)c1CN1CCOCC1" , what pEC50 is on record?
< 5.00

For the compound "Cc1nnc(-c2cnc3cnc(NC(=O)CN4C5CCC4CC5)cc3c2)s1" , what pEC50 is on record?
< 5.00

Let's switch to this compound now.
For the compound "Cc1nnc(-c2cc3cc(NC(=O)c4ccnc(N5CCN(C)CC5)c4)ncc3cn2)s1" , what pEC50 is on record?
< 5.00

* * *

tested on: α-smooth muscle actin (aSMA) positive LL29 cells; assay: Inhibition of the fibrotic process: αSMA staining in TGF-β1 treated LL29 fibroblasts from IPF patients; details: Homo sapiens, Fibroblast, read-out: percentage in parentheses after EC50 >10
reported-endpoint: inhibition at 10 µM (%)
Numbers only, in %.

Here are 2 molecules together with their reported answers.
For the molecule "Cc1ncc(-c2ccc3cnc(NC(=O)C4CCN(CC(C)(F)F)CC4)nc3c2)o1" , what inhibition at 10 µM is on record?
43.6

For the molecule "Cn1cc(-c2ccc3cnc(NC(=O)C(C)(C)F)nc3c2)nn1" , what inhibition at 10 µM is on record?
13.5

New cases:
For the molecule "Cc1nnc(-c2cnc3cnc(NC(=O)CN4C5CCC4CC5)cc3c2)s1" , what inhibition at 10 µM is on record?
16.9

* * *

Please provide measured pEC50 for the entries that follow.
biological target: GSK3β kinase (Homo sapiens); assay: GSK3β kinase activity (Ser/Thr 09 peptide Z-lyte FRET assay); assay type: biochemical; details: recombinant kinase, 46 μM ATP, one hour at room temperature; read-out: EC50
One number for each entry, as −log10 of the molar value.

Here are 3 compounds together with their reported answers.
Query for GSK3β kinase (Homo sapiens): what pEC50 does the record show for "Cc1ncc(-c2ccc3cnc(NC(=O)C4CCN(CC(C)(F)F)CC4)nc3c2)o1" ?
6.24

Query for GSK3β kinase (Homo sapiens): what pEC50 does the record show for "Cn1cnnc1-c1cnc2cnc(NC(=O)C3CCN(CCC(F)(F)F)CC3)cc2c1" ?
5.67

Query for GSK3β kinase (Homo sapiens): what pEC50 does the record show for "Cn1cc(-c2ccc3cnc(NC(=O)[C@H]4CCCN4)cc3n2)cn1" ?
8.05

Please give pEC50, item by item, for the list that follows.
1. CN1CCC(n2cc(C(=O)Nc3cc4cc(-c5cnn(C)c5)ncc4cn3)cn2)CC1
2. CN1CCCN(c2cc(C(=O)Nc3ncc4ccc(-c5cn(C)nn5)cc4n3)ccn2)CC1

1: 5.76; 2: 6.08

* * *

Please provide measured pEC50 for the entries that follow.
target: GSK3β kinase (Homo sapiens); test: GSK3β kinase activity (Ser/Thr 09 peptide Z-lyte FRET assay); format: biochemical; settings: recombinant kinase, 46 μM ATP, one hour at room temperature; read-out: EC50
pEC50: −log10 of the molar value.

Here are 4 molecules together with their reported answers.
For the molecule "CN1CCC(C(=O)Nc2cc3cc(-c4cnsc4)cnc3cn2)CC1" , what pEC50 is on record?
< 5.00

For the molecule "CN1CCC(n2cc(C(=O)Nc3cc4nc(-c5cncc6[nH]ccc56)ccc4cn3)cn2)CC1" , what pEC50 is on record?
< 5.00

For the molecule "CC(C)Nc1cncc(-c2ccc3cnc(NC(=O)c4cn(C5CCN(CCF)CC5)nn4)cc3n2)n1" , what pEC50 is on record?
< 5.00

For the molecule "CN1CCN(c2ccc(C(=O)Nc3cc4cc(-c5cnn(C)c5)cnc4cn3)cn2)CC1" , what pEC50 is on record?
< 5.00

Please give pEC50, item by item, for the list that follows.
1. CN1CCC(Oc2cccc(C(=O)Nc3ncc4ccc(-c5cnco5)cc4n3)c2)CC1
2. CN(C)Cc1ccc(C(=O)Nc2cc3cc(-c4cnn(C)c4)cnc3cn2)cc1
3. CN1CCc2ccc(C(=O)Nc3cc4cc(-c5cnn(C)c5)cnc4cn3)cc2C1

< 5.00
< 5.00
< 5.00

Sourced from patent US10703748B2
